experimental.system: T1, USP38, Q8NB14
T1 chain: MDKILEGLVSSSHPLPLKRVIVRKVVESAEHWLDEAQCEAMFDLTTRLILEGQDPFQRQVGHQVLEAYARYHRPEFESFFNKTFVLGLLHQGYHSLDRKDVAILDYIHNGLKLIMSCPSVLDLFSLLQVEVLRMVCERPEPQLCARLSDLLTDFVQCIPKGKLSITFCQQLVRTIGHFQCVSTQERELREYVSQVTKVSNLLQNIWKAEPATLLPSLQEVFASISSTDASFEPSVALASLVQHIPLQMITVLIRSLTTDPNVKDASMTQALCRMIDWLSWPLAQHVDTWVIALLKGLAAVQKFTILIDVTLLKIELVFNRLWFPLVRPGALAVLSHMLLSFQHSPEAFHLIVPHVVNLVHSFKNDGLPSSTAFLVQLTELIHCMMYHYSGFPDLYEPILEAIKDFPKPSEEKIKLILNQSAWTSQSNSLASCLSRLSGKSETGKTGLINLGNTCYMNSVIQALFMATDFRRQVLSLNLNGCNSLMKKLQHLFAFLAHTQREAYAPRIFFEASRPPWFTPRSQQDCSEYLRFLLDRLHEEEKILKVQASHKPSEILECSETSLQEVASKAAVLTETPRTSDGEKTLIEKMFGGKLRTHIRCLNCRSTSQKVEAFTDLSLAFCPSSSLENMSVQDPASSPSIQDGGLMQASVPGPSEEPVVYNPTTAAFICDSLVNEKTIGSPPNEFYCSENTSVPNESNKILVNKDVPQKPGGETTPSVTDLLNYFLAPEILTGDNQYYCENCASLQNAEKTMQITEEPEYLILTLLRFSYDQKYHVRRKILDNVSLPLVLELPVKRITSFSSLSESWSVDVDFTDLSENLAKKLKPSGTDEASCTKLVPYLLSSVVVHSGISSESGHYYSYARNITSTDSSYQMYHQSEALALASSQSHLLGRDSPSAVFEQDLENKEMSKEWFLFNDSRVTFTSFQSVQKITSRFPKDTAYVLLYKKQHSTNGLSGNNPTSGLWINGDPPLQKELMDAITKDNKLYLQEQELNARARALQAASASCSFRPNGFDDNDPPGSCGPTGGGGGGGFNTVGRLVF
assay.procedure: median log2 fold change of GCK-ALFA target abundance (FLAG IP / Myc IP barcode read proportion) (log2 ratio); each designed protein is fused to an ALFA-tag nanobody in HEK293 cells to bring the named protein to FLAG-tagged glucokinase (GCK); Myc marks an untargeted standard; higher = target protein stabilised (more abundant)
condition.label: target protein: 3xFLAG-MCP-GCK-ALFA reporter; HEK293 landing pad (RPLP)
readout.type: median log2 fold change

>  <binder>
usp_38_diff_out_24_27_502 (protein) EEEKKKKLEEIKKLLEEILALLKASQTGDIATRIKASSEIDELFEKIEKILKELGNEEGLELLTELKTQAYAVLSRSPDWQEHLAKAKELAEKIIKLAKK

>  <readout.type>
median log2 fold change

>  <assay.result>
0.548

$$$$
>  <binder>
usp_38_diff_out_1_153_35 (protein) SELDKLKAELADITAKANALKKEIEAAIKAGTMTREKVDAAWDELGALAKRLAEIRSKAAENPELYPKLKADIDAANAALDAAIDALNEAATKVFLKEAE

>  <readout.type>
median log2 fold change

>  <assay.result>
0.136

$$$$
>  <binder>
usp_38_diff_out_4_126_550 (protein) SMKEELEKKLEEAKKLAEEALKAAARLVELAATDPSKVAEARAELDALIAAFTKAANEALKLARKDGKYKEEVTKEIDKLTDEVVEAEGKAVEAVAEALA

>  <readout.type>
median log2 fold change

>  <assay.result>
0.0827

$$$$
>  <binder>
usp_38_diff_out_4_99_571 (protein) EKEKIVEEVKKLKEEAEKLLKEAKEAKKLSTEERRKKAEEIRKKLDELAKEMGKLYFEARDSGDKELIEEVNKEADEFVDAYEKAATELFELEAEVEEEE

>  <readout.type>
median log2 fold change

>  <assay.result>
-0.355

$$$$
